Test system: TK-10
experiment.summary: NCI tumour cell line growth inhibition, 48 h
Active and inactive are the calls of the source. Cut-off read from the data, not from the text of the source: active = GI50 up to about 1.1 µM and inactive = higher.
In this section, each of the compounds is paired with its reported GI50.

compound	GI50
O=C(CCc1nnc(S)[nH]1)Nc1cc(Cl)c(Cl)cc1Cl	> 100 µM (inactive)
NC(CCCNc1ccc(O)cc1)C(=O)O (centres undefined)	> 63.2 µM (inactive)
Cc1csc2nc(-c3cccc([N+](=O)[O-])c3)c(/C=N/N=C(N)N)n12	1.78 µM (inactive)
COc1cccc(NC(=O)C(=O)C2C=CCS2(=O)=O)c1 (centres undefined)	> 100 µM (inactive)

====

In this section, each of the molecules is paired with its reported GI50.
Tested on: SF-539
experiment.summary: NCI tumour cell line growth inhibition, 48 h
The source made the active and inactive calls. No stated cut-off is given here; in the data, active = GI50 up to about 1.1 µM and inactive = higher.
measured.endpoint: GI50

molecule	measured.endpoint	endpoint.value
CCOP(=O)(OCC)C(C(=O)OC)C(=O)C(=O)Nc1cccc([N+](=O)[O-])c1 (stereo not drawn)	GI50	> 100 µM (inactive)
CC(C#N)(c1ccccc1)N(CCc1ccccc1)C(=O)Oc1ccccc1 (stereo not drawn)	GI50	> 100 µM (inactive)
O=C1OC(CC(=O)c2ccc(F)cc2)C(Cl)=C1Cl (stereo not drawn)	GI50	19 µM (inactive)

====

Test system: K562
experiment.summary: NCI tumour cell line growth inhibition, 48 h
Active and inactive are the calls of the source. No stated cut-off is given here; in the data, active = GI50 up to about 1.1 µM and inactive = higher.
Possible outcomes: true = active, false = inactive

compound	label.value
c1ccc(-c2c3c(nc4c2CC[C@H]4NC2=NCCN2)[C@@H](NC2=NCCN2)CC3)cc1	false
CCOP(C)(=O)C(Nc1ccc(F)cc1)c1ccc(F)cc1 (stereo not drawn)	false
C/C(=N\Nc1ccc2ccccc2n1)c1ccccc1O	false
Cc1ccc(C)c(NC(=O)/C(=N\NC(N)=S)C(C#N)c2ccccc2)c1 (stereo not drawn)	false
CCOP(=O)(OCC)C(c1ccc(F)cc1)N(C(=O)NC(F)(F)F)c1ccc(F)cc1 (stereo not drawn)	false
Cn1c(=O)c(-c2ccccc2)c(O)c2ccccc21	false
COc1ccc(-c2cc(O)c3cccnc3n2)cc1	false
CC(NC(CC12CC3CC(CC(C3)C1)C2)C(N)=O)c1ccccc1 (stereo not drawn)	false
CC1=C(C(=O)N[C@@H](CC(C)C)C(=O)O)N2C(=O)[C@@H](NC(=O)[C@@H](N)Cc3ccccc3)[C@H]2SC1	false
c1ccc(/N=C(/Nc2ccccc2)N2CCCCC2)cc1	false
O=C1OC(CC(=O)c2ccc(F)cc2)C(Cl)=C1Cl (stereo not drawn)	false
COC1OC(CO)C(O)C(OC(=O)c2cc(O)c(O)c(O)c2)C1OC(=O)c1cc(O)c(O)c(O)c1 (stereo not drawn)	false
O=C1NC2(CCCCC2)C(=O)N1CCN(CCCl)CCCl	false
COC(=O)C12C3C4C1C1C2C3C41C(=O)N(C(C)C)C(C)C (stereo not drawn)	false
FC1=C2C3CCC(C3)C2C1(F)F (stereo not drawn)	false
O=C(Nc1cc(Cl)c(Cl)cc1Cl)C(=O)C1C(=O)NC(=S)NC1=O	false
NC(=O)c1ncn(Cc2ccccc2)c1CNC(N)=S	false
C=CC(=O)N1C/C(=C\c2ccc(Cl)c(Cl)c2)C(=O)/C(=C/c2ccc(Cl)c(Cl)c2)C1	true
C[C@]12CC[C@H](O)CC1=CC[C@@H]1[C@@H]2CC[C@]2(C)NC(=O)/C(=C\c3ccccc3)C[C@@H]12	false
COc1cccc(NC(=O)C(C)(C)C)c1C=O	false
COc1ccc(C(Nc2ncccn2)c2cc3c(cc2O)OCO3)cc1 (stereo not drawn)	false
COC(=O)/C=C\C(C#N)(C#N)/N=C/c1cc(Br)cs1	true
O=[N+]([O-])c1ccc(Cl)cc1N/N=C/c1cccs1	false
Cc1cc2c(c3oc(C4(C)OC4C4OC4C)cc(=O)c13)C(=O)c1c(O)c(C3CC(C)(N(C)C)C(O)C(C)O3)cc(C3CC(N(C)C)C(O)C(C)O3)c1C2=O (stereo not drawn)	true
CN1C(=O)C(=CNc2ccccc2Cl)C(=O)N(C)C1=O	false
CCCCCCCCCCCCCCCCCC(=O)OCC(COC1OC(COP(=O)(O)O)C(O)C(O)C1O)OC(=O)CCCCCCCCCCCCCCCCC (stereo not drawn)	false
COc1ccc2c(c1)CCCN2S(=O)(=O)c1ccccc1[N+](=O)[O-]	false
CN(C)c1nc(NN)c2c(-c3ccccc3)c(-c3ccccc3)oc2n1	false
Cn1cc2ccccc2c1-c1nc(F)nc(Nc2ccc(N)cc2)n1	false
C1CCSCCCCSCCCCSCCCCSC1	false
[N-]=[N+]=Nc1ccc2c(c1)Sc1ccccc1N2CCCCN1CCN(Cc2ccc(C(=O)c3ccc(CSCC(N)C(=O)O)cc3)cc2)CC1 (stereo not drawn)	false
C=C1CC(C)(COc2ccc3c(C)c(Cl)c(=O)oc3c2)OC1=O (stereo not drawn)	true
C[n+]1c2n(c3nc(N)[nH]c(=O)c31)C1OC(C2)C(O)C1O (stereo not drawn)	false

====

Test system: SNB-75
experiment.summary: NCI tumour cell line growth inhibition, 48 h
Active and inactive are the calls of the source. No stated cut-off is given here; in the data, active = GI50 up to about 1.1 µM and inactive = higher. Residues, ends and D or L forms follow the SMILES beside them. *: point of attachment. Fmoc = O=C(OCC1c2ccccc2-c2ccccc21)*; Boc = CC(C)(C)OC(=O)*
measured.endpoint: GI50

molecule	endpoint.value
NC(=S)N/N=C1\CCCCC1C(O)(C(F)(F)Cl)C(F)(F)Cl (stereo unspecified)	> 10 µM (inactive)
CN(C(=O)c1ccco1)C(=S)N1CCN(c2ccccn2)CC1	> 100 µM (inactive)
C1CCSCCCCSCCCCSCCCCSC1	64 µM (inactive)
O=C1NC2(CCCCC2)C(=O)N1CCN(CCCl)CCCl [SPIROMUSTINE]	173 µM (inactive)
Cn1c(=O)oc2cc(C(=S)N3CCCCC3)ccc21	> 100 µM (inactive)
O=c1c2cn[nH]c2nc2scc(-c3ccc(Cl)cc3)n12	16.9 µM (inactive)
O=C(O)CSCc1cccc2ccccc12	> 100 µM (inactive)
Cn1c2ccccc2c2cc(-c3ccccc3)c3c(c21)C(=O)c1ccccc1C3=O	34.4 µM (inactive)
Cc1csc2nc(-c3cccc([N+](=O)[O-])c3)c(/C=N/N=C(N)N)n12	1.75 µM (inactive)
CC(C)(C)OC(=O)NCCCCC(NC(=O)C(Cc1c[nH]c2ccccc12)NC(=O)OCC1c2ccccc2-c2ccccc21)C(=O)N1CCCC1C(=O)NCC(N)=O (stereo unspecified) (Fmoc-WK(Boc)PG-NH2; configuration not given here)	> 100 µM (inactive)
Cc1ccc([N+](=O)[O-])cc1NC(=O)C(=O)Cc1nc2ccc(C(=O)c3ccccc3)cc2nc1O	56.5 µM (inactive)
CCC1=CC2CN3CCc4c([nH]c5ccccc45)C(C(=O)OC)(C2)C13 (stereo unspecified)	48.4 µM (inactive)
Nc1ncnc2c(C3OC(CO)C(O)C3O)n[nH]c12 (stereo unspecified)	0.196 µM (active)
O=c1c2ncn(C3CCCO3)c2n(-c2ccccc2)c(=S)n1-c1ccccc1 (stereo unspecified)	97.7 µM (inactive)
COc1ccc2[nH]c3c(C)c4c(c(C)c3c2c1)CN(C)C=C4	0.226 µM (active)
CSC(=S)NNC(=O)c1ccncc1	17.5 µM (inactive)
CCc1nnc(CC)n1N1C(=O)CCC1=O	> 100 µM (inactive)
CC1CCC2(OC1)OC1CC3C4CCC5CC(O)CCC5(C)C4CC(=O)OC3(C)C1C2C (stereo unspecified)	> 100 µM (inactive)
CCC(=O)COc1ccc(NC(NC(=O)C(C(F)(F)F)C(F)(F)F)(C(F)(F)F)C(F)(F)F)cc1	23.7 µM (inactive)
CC1(C)SC2C(NC(=O)Cc3ccccc3)C(=O)N2C1C(=O)O (stereo unspecified)	> 100 µM (inactive)
CCOP(=O)(OCC)C(c1ccc(F)cc1)N(C(=O)NC(F)(F)F)c1ccc(F)cc1 (stereo unspecified)	> 100 µM (inactive)
[O-][n+]1c2cc3c(cc2[n+]([O-])c2c(O)cccc21)CN(CCN1CCOCC1)C3	89.1 µM (inactive)
COc1cc2cnc(-c3ccccc3)cc2cc1OC	41.1 µM (inactive)
COC(=O)Nc1nc(=O)c2cc(OC)c(OC)cc2[nH]1	11.6 µM (inactive)
Fc1cc(-c2cc(-c3ccccc3)no2)c(Cl)cc1Cl	> 31.6 µM (inactive)
CCCCc1ccc(Nc2nc(S)c3ncn(COCCO)c3n2)cc1	41 µM (inactive)
CC1(C)OCN(c2ccc(S(N)(=O)=O)cc2)Cn2c1nc1ccccc12	> 100 µM (inactive)
c1ccc(COC2C3COC(O3)C(OCc3ccccc3)C2OCc2ccccc2)cc1 (stereo unspecified)	22.8 µM (inactive)
COC1CC(O[C@H]2CC[C@@]3(C)[C@@H](CC[C@]4(O)[C@@H]3CC[C@]3(C)[C@@H](C(C)=O)[C@H](OC(=O)CC(C)C)[C@@H](OC(=O)c5ccccc5)[C@@]34O)C2)OC(C)C1OC1CC(OC)C(OC2OC(C)C(O)C(OC)C2O)C(C)O1 (stereo partly specified)	11.9 µM (inactive)
COC(=O)C1OC(SCCN)C(O)C(O)C1O (stereo unspecified)	> 100 µM (inactive)
C[C@H](CCC(=O)O)[C@H]1CC[C@H]2[C@@H]3[C@@H](O)C[C@@H]4C[C@H](O)CC[C@]4(C)[C@H]3C[C@H](O)[C@]12C	> 100 µM (inactive)
O=C(CCC(=O)Nc1ccc(Cl)c(Cl)c1)CC(=O)c1ccc2ccccc2c1	26.3 µM (inactive)
CN(C)CC1CCCCCCCCCC(CN(C)C)C1=O (stereo unspecified)	17.1 µM (inactive)
COC1OC(CO)C(O)C(OC(=O)c2cc(O)c(O)c(O)c2)C1OC(=O)c1cc(O)c(O)c(O)c1 (stereo unspecified)	> 100 µM (inactive)
O=C1/C(=C/c2cc3c(=O)c4ccccc4sc3s2)NC(=S)N1c1ccccc1	5.11 µM (inactive)
Cc1cc2ncn(C3CCCO3)c2cc1C (stereo unspecified)	71.6 µM (inactive)

Values from ChEMBL document CHEMBL1201862
